experimentalTarget: T1, HLA-A*02:01 (human)
T1 construct: captured on streptavidin plates; also called peptide-receptive MHC molecules
assay: UV peptide exchange ELISA (anti-b2m); yield grade: + >10%, ++ >20%, +++ >50, ++++ >75%
observable: peptide exchange yield

{"binder": "SIDDVVKKL", "peptide exchange yield": "20 to 50%"}
{"binder": "YLINFEIRSL", "peptide exchange yield": "> 75%"}
{"binder": "SLGLGFISRV", "peptide exchange yield": "50 to 75%"}
{"binder": "RLPDQFSKL", "peptide exchange yield": "50 to 75%"}
{"binder": "LLEEINHFL", "peptide exchange yield": "50 to 75%"}

Answer for every listed entry: what is its peptide exchange yield? The entries follow.
1. KLKEAVEAI
2. VMFEYGMRL
3. LLSNTVSTL

20 to 50%
> 75%
50 to 75%
